- tested.on: hMeprin α (Homo sapiens)
- Sequence (Q16819 66-746): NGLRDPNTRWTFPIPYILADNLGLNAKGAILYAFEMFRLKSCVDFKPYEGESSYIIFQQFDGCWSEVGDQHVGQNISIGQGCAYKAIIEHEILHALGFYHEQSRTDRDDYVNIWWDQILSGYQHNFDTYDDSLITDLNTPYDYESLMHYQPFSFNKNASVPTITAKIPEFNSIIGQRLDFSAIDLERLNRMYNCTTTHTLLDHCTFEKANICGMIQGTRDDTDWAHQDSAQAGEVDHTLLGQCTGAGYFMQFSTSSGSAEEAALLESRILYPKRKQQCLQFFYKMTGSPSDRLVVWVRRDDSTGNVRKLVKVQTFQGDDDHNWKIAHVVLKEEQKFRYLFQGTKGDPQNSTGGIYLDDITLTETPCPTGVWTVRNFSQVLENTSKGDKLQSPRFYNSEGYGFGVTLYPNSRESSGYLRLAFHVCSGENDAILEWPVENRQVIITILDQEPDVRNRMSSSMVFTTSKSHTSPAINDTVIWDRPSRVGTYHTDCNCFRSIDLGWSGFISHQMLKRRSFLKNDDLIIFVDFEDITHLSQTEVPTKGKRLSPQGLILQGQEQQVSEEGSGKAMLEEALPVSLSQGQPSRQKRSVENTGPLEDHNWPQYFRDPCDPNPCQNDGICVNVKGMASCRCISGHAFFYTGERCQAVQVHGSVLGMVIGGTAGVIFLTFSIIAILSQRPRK
- assay.text: Enzymatic assay, quenched peptide substrate cleavage, method B
- Type: biochemical
- measurement.parameters: geometric mean (geometric SD factor in parentheses), read-out: Meprin alpha IC50
Hi! Just check whether IC50 is below 3 nM. Below gives rule met, equal or above gives rule not met.

Some solved cases for reference:
- molecule: "O=C(Cc1c(-c2ccccc2)[nH]nc1[C@H]1CC[C@H](C(=O)O)CC1)NO [Example 76]"
  tested.on: "hMeprin α (Homo sapiens)"
  assigned.class: "rule not met"
- molecule: "O=C(Cc1c(-c2cccc(C(=O)O)c2)[nH]nc1[C@H]1CC[C@@H](C(=O)O)CC1)NO [Example 77]"
  tested.on: "hMeprin α (Homo sapiens)"
  assigned.class: "rule not met"
- molecule: "O=C(Cc1c(-c2cccc(C(=O)O)c2)n[nH]c1-c1ccc(Cl)c(O)c1F)NO [Example 63]"
  tested.on: "hMeprin α (Homo sapiens)"
  assigned.class: "rule not met"

Next:
Confirm or reject: IC50 of COc1cccc(-c2n[nH]c(-c3ccccc3)c2CC(=O)NO)c1 [Example 47] lies strictly below 3 nM
rule met
